Target: T1, human claudin 6 (CLDN6) (human, UniProt P56747 1-220)
T1 construct: also called human CLDN6; hCLDN6
T1 sequence: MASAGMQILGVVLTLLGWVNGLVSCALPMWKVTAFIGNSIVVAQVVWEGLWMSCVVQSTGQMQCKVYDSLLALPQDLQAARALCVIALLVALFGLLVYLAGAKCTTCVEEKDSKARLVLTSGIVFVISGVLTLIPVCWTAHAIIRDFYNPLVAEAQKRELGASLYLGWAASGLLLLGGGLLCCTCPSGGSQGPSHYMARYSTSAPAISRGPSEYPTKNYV
Assay: FACS, HEK293T/human CLDN6 cells
// NB: equality with 0.7 ratio counts as 0; only Emax ratio to BG87P strictly below is 1

Consider the following illustrative entries.
>>> category("BG87P-24 (antibody, V domains shown) VH: QVQLVQSGAEVKKPGASVKVSCKASGYSFTDYHINWVRQAPGQRLEWMGWIYPGSGYTKYNEKFKGRVTLTRDTSASTAYMELSSLRSEDTAVYYCARSGIYHYVSSYYFDHWGKGTTVTVSS VL: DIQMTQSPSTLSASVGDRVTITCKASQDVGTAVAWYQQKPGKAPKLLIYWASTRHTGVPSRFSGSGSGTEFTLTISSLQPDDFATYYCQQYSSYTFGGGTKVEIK")
0
>>> category("BG87P-21 (antibody, V domains shown) VH: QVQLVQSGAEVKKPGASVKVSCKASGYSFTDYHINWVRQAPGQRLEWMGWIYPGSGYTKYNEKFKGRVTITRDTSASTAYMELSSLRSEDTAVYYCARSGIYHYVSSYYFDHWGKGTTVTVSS VL: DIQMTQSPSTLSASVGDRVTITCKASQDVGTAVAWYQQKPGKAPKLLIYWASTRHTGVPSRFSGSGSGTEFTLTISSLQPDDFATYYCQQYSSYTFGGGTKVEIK")
0
>>> category("BG87P-23 (antibody, V domains shown) VH: QIQLVQSGAEVKKPGASVKVSCKASGYSFTDYHINWVRQAPGQRLEWMGWIYPGSGYTKYNEKFKGRVTITRDTSASTAYMELSSLRSEDTAVYYCARSGIYHYVSSYYFDHWGKGTTVTVSS VL: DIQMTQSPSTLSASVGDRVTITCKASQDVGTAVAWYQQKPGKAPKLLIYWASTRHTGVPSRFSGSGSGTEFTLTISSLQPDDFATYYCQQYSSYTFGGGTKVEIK")
0
>>> category("BG87P-Bz5 (antibody, V domains shown) VH: QIQLVQSGAEVKKPGASVKVSCKASGYSFTDYHINWVRQAPGQRLEWMGWIYPGSGYTKYNEKFKVRVTLTVDTSASTAYMELSSLRSEDTAVYYCARSGIYHYVSSYYFDHWGKGTTVTVSS VL: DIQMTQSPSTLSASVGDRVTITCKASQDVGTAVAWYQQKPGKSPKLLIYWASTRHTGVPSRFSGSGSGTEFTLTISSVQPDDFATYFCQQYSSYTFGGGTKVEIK")
0
>>> category("BG87P-Bz3 (antibody, V domains shown) VH: QIQLVQSGAEVKKPGASVKVSCKASGYSFTDYHINWVRQAPGQRLEWMGWIYPGSGYTKYNEKFKVRVTITVDTSASTAYMELSSLRSEDTAVYFCARSGIYHYVSSYYFDHWGKGTTVTVSS VL: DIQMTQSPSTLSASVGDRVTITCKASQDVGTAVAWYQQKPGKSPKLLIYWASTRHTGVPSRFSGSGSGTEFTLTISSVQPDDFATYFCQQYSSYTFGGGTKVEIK")
1
>>> category("BG87P-Bz0 (antibody, V domains shown, also called BG87-Bz0) VH: QIQLVQSGAEVKKPGASVKVSCKASGYSFTDYHINWVRQAPGQRLEWMGWIYPGSGYTKYNEKFKVRVTLTVDTSASTAYMELSSLRSEDTAVYFCARSGIYHYVSSYYFDHWGKGTTVTVSS VL: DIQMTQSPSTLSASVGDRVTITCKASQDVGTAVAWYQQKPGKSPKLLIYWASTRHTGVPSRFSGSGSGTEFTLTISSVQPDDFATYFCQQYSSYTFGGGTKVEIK")
1
>>> category("BG87P-m5 (antibody, V domains shown, PTM removal variant of BG87P-Bz0; constant regions not restated (parent: human IgG1/kappa)) VH: QIQLVQSGAEVKKPGASVKVSCKASGYSFTDYHINWVRQAPGQRLEWMGWIYPGSGYTKYNEKFKVRVTLTVDTSASTAYMELSSLRSEDTAVYFCARSGIYHYVSSYYFEHWGKGTTVTVSS VL: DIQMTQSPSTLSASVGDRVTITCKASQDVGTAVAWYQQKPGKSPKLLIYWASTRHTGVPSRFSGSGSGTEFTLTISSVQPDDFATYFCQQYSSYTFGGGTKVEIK")
1

Lab note: next binder to report on.
Inquiry: Below 0.7 ratio on Emax ratio to BG87P? Entry BG87P-m8 (antibody, V domains shown, Variant of BG87P-Bz0 with H33A; constant regions not restated (parent: human IgG1/kappa)) VH: QIQLVQSGAEVKKPGASVKVSCKASGYSFTDYAINWVRQAPGQRLEWMGWIYPGSGYTKYNEKFKVRVTLTVDTSASTAYMELSSLRSEDTAVYFCARSGIYHYVSSYYFDHWGKGTTVTVSS VL: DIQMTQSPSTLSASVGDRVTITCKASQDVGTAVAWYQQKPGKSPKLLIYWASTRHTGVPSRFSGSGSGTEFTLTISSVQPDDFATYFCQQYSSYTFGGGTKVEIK
Reply text: 1
